protocol_text: Melphalan test dose and full dose pharmacokinetics in patients undergoing RIC allogeneic HCT for non-malignant disorders (Bayesian analysis of plasma concentrations)
Format: in vivo, human
condition: human, plasma, intravenous, 140 mg/m2, patient with grade 4 mucositis and gastrointestinal bleeding; read-out: full dose AUC (highest melphalan exposure)
Experimental: Patients undergoing allogeneic HCT for non-malignant disorders with a uniform RIC regimen that included alemtuzumab, fludarabine and melphalan were enrolled in this study. […] Blood samples were obtained for PK measurement after the administration of test dose and the full standard dose of melphalan. […] Acute and chronic GVHD were assessed by standardized published criteria. […]
measurement_type: AUC (ng·h/mL)

# molecule, measurement_unit, numeric_readout
data = [
    ("N[C@@H](Cc1ccc(N(CCCl)CCCl)cc1)C(=O)O [melphalan]", "ng·h/mL", 9500),
]

###

protocol_text: Melphalan test dose and full dose pharmacokinetics in patients undergoing RIC allogeneic HCT for non-malignant disorders (Bayesian analysis of plasma concentrations)
Assay type: in vivo, human
condition: human, plasma, intravenous, patient with normal organ function who developed grade 4 gastrointestinal mucositis; read-out: full dose AUC

# compound_structure_string, measurement_unit, AUC
measured = [
    ("N[C@@H](Cc1ccc(N(CCCl)CCCl)cc1)C(=O)O", "ng·h/mL", 9500),
]

###

protocol_text: Melphalan test dose and full dose pharmacokinetics in patients undergoing RIC allogeneic HCT for non-malignant disorders (Bayesian analysis of plasma concentrations)
Format: in vivo, human
condition: human, plasma, intravenous, median; Standard full dose, N = 16 (16); read-out: Test dose AUC
measurement_type: AUC (ng·h/mL)

# compound, measurement_unit, numeric_readout
rows = [
    ("N[C@@H](Cc1ccc(N(CCCl)CCCl)cc1)C(=O)O [melphalan]", "ng·h/mL", 550),
]

###

protocol_text: Melphalan test dose and full dose pharmacokinetics in patients undergoing RIC allogeneic HCT for non-malignant disorders (Bayesian analysis of plasma concentrations)
Assay type: in vivo, human
condition: human, plasma, intravenous, median in the 12/17 (70.6%) patients with AUC between 3.5 and 6.5; read-out: full dose AUC
measurement_type: AUC (ng·h/mL)

# compound, numeric_readout
rows = [
    ("N[C@@H](Cc1ccc(N(CCCl)CCCl)cc1)C(=O)O [melphalan]", 5200),
]
